Target: PI3Kα (Homo sapiens, UniProt P42336)
Sequence (P42336 whole entry): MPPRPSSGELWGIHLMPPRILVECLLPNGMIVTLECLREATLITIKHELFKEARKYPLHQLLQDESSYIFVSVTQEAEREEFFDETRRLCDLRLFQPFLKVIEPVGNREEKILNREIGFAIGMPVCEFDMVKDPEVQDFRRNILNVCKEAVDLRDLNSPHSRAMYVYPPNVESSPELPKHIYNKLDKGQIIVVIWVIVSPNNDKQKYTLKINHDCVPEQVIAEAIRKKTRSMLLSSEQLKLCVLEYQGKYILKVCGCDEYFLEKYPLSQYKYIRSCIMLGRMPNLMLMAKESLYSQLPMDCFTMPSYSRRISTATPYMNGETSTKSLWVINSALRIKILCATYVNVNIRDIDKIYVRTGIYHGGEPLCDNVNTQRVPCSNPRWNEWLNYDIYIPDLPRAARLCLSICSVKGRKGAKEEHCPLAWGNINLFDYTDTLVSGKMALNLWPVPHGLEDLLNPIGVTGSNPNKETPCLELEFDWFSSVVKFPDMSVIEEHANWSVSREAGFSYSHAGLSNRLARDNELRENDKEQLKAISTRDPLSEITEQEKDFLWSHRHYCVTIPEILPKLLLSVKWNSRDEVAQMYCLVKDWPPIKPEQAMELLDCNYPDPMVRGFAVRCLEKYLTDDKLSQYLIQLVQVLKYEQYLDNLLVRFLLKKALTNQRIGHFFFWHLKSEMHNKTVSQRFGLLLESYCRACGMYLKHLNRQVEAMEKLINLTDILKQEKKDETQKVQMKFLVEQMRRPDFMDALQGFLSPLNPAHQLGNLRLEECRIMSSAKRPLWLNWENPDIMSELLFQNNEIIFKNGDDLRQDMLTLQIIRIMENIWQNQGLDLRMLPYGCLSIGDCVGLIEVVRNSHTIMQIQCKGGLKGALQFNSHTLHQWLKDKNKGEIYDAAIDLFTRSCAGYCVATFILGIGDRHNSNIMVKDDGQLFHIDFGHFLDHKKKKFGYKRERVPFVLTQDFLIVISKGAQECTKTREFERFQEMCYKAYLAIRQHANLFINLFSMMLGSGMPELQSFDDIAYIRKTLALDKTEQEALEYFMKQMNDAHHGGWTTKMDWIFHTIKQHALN
Sequence (P27986 whole entry partner): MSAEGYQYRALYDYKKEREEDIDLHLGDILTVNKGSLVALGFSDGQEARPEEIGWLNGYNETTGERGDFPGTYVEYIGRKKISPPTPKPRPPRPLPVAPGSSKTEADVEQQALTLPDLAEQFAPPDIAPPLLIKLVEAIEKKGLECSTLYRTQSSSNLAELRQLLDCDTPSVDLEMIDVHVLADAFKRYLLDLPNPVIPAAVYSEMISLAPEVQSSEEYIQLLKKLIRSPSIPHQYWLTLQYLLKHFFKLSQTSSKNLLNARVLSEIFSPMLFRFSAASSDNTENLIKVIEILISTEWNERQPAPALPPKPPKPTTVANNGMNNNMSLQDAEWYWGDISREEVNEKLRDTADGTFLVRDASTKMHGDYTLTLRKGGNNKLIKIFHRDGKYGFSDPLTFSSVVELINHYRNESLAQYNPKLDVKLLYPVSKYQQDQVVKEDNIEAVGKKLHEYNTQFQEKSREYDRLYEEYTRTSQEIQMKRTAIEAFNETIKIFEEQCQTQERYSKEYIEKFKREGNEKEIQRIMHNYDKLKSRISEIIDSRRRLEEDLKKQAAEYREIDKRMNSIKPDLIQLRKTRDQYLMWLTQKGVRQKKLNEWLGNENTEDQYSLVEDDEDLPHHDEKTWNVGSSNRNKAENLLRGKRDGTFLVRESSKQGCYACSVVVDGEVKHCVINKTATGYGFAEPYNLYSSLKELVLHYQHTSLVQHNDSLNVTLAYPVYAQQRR
Assay: PI3Kα kinase activity, Adapta TR-FRET ADP detection
Details: purified p110α/p85α heterodimer, triplicate; read-out: Kinases IC50 PI3Kα
Experimental: The activity of the PI3Kα kinase was evaluated by using a purified heterodimer (reference: PV4788 from Invitrogen) consisting of the α catalytic p110 subunit (PIK3CA) and the α regulation p85 subunit (PIK3R1). The assay of the kinase with the kit Adapta™ (reference: PV5099 from Invitrogen) is an enzymatic test based on the detection of ADP, produced during the reaction, by the fluorescence technique TR-FRET. […]
pIC50: −log10 of the molar value. Structures can show the parent of a compound that is named as a salt.
Assign class by pIC50: not lower than 7 means true (1); lower than 7 means false (0).

[N-]=[N+]=NCc1cnc2c(N3CCOCC3)nc(-c3cccc(O)c3)nc2c1	true (1)
Oc1cccc(-c2nc(N3CCOCC3)c3ncc(CNC4CCCCC4)cc3n2)c1 [Compound 28, hydrochloride]	false (0)
Oc1cccc(-c2nc(N3CCOCC3)c3ncc(Cl)cc3n2)c1	true (1)
Oc1cccc(-c2nc(N3CCOCC3)c3ncc(CN4CCN(C5CCCCC5)CC4)cc3n2)c1	true (1)
N#CCc1cnc2c(N3CCOCC3)nc(-c3cccc(O)c3)nc2c1	true (1)
Oc1ccc(-c2nc(N3CCOCC3)c3ncc(Cl)cc3n2)cc1	false (0)
COCc1cn(Cc2cnc3c(N4CCOCC4)nc(-c4ccc(NC(=O)NCC(F)(F)F)cc4)nc3c2)nn1	true (1)
COc1ccc(-c2nc(N3CCOCC3)c3ncc(Cl)cc3n2)cc1	false (0)
O=Cc1cnc2c(N3CCOCC3)nc(-c3cccc(O)c3)nc2c1	true (1)
O=CCCc1cnc2c(N3CCOCC3)nc(-c3cccc(O)c3)nc2c1	true (1)
O=C(Nc1ccc(CO)cc1)Nc1ccc(-c2nc(N3CCOCC3)c3ncc(CN4CCOCC4)cc3n2)cc1	true (1)
OCc1cnc2c(N3CCOCC3)nc(-c3cccc(O)c3)nc2c1	false (0)
COCc1cn(Cc2cnc3c(N4CCOCC4)nc(-c4ccc(NC(=O)Nc5ccc(CO)cc5)cc4)nc3c2)nn1	true (1)
CN(C)Cc1cn(Cc2cnc3c(N4CCOCC4)nc(-c4cccc(O)c4)nc3c2)nn1	true (1)
Oc1cccc(-c2nc(N3CCOCC3)c3ncc(CN4CCOCC4)cc3n2)c1 [Compound 29, hydrochloride]	true (1)

Where do these numbers come from? They come from patent US10202372B2.
